// data source = the supplement of paper PMC9170038

- Tested on: MS2 coat protein
- measurement_notes: apparent KD of MS2 coat protein; higher = weaker reporter binding
- conditions: Eterna round: R101; input ligand: none
Please respond with reported apparent KD of MS2 coat protein for every item in the list.
Be sure to follow the number with its unit.

Input: Need apparent KD of MS2 coat protein, item GGAGAUACAUGAGGAUCACCCAUGUAGGAUAUCGGGCCCAUACCCGGCGAAAGCCGGGUAUGGGCCGAGAAGGGCGUACACACC [#LOL-5] (puzzle (switch architecture): Small Loop Exclusion NG 3)
Output: 8.26 nM

Input: Need apparent KD of MS2 coat protein, item AAAAAUUCUUAAGGAUAUGACUCCGAAACGGAGUCAGAAGGUGAGGAUCACCCACCUAGCUCAGCGUCGAAAGACGCUGAGCAA [#SharedSequence ExNG1 - 28] (puzzle (switch architecture): Exclusion NG 1)
Output: 10.9 nM

Input: Need apparent KD of MS2 coat protein, item AAUAAAACUCAAGGAUAUCAGUGGCAAAGCCACUGAGAAGGUGAGGAUCACCCACCUACGUGACGCUGGAAACAGCGUCACGAA [#SharedSequence ExNG1 - 33] (puzzle (switch architecture): Exclusion NG 1)
Output: 15.8 nM

Input: Need apparent KD of MS2 coat protein, item UGGUACAUGGGAGGAUAUGGGUUGAUAACAUGAGGAUCACCCAUGUUAAAUAAGCCGAGAGGCUACUAGAAGGCCCAUGUACCU [#InverseDoubleMagnetSystem - JL SNG1 3.00 18] (puzzle (switch architecture): Same State NG 2)
Output: 293 nM

----------
- Tested on: K4 kissing-loop RNA reporter;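 further: bound reporter read as fluorescence of individual clusters on recovered sequencing chips by microscopy, with normalized cluster intensities fitted with a binding model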
- measurement_notes: apparent KD of K4 kissing-loop reporter; higher = weaker reporter binding
- conditions: Eterna round: R107; input ligand: FMN 200 uM
Short version: apparent KD of K4 kissing-loop reporter at least 200 nM is True, less is False.

Input: Confirm if apparent KD of K4 kissing-loop reporter reported for the sequence UGAUUGCCAGUGAUGUUGGCAUAUACUGAAGGAGCGCGUGAAAACGCAGGUAGGUCGCAGUUCCUUGCCAAUUGAUCGAAAGAUC [KL-XArg-A1] is 200 nM or above.
Output: False

Input: Confirm if apparent KD of K4 kissing-loop reporter reported for the sequence CUUUAUCAACCAGAUACCAGCGGUUCUCUAGUUGGCUUCCGUAGUGAUGUUGCGUGGUCCCGCCCUUGGCAGCUGGCCAUGACUA [theeternabot_sameState_KL_Theo_B_5] is 200 nM or above.
Output: True

Input: Confirm if apparent KD of K4 kissing-loop reporter reported for the sequence GCGGGCCCUGGAGGAUAUGAGUCGAGUGAUGUUCGGCGGUCCAUGCCGAUGCGGCGUUAUGCCCUUUUAGAAGGCCAGGGCCCGC [#2 Exclusion - FMN B Attempt #7 (HarryS)] is 200 nM or above.
Output: True

Input: Confirm if apparent KD of K4 kissing-loop reporter reported for the sequence `UGAUAGGACAGAAGGAGCGGCAGUGAUGUUGCCAAAAGGGUAAGGUGUCAAAAGACACCCUGCCAGGUAGGUCGCUGUCCUAUCU` is 200 nM or above.
Output: False

Input: Confirm if apparent KD of K4 kissing-loop reporter reported for the sequence ACACUCGGCUCGGCCGCCACUCCAGUGAUGUUGGAGUCAUAGCUAUGACGAGAAGAGCGUUUUCGGAGGACCGGGAGCUCACAGG [Leveeder] is 200 nM or above.
Output: True

Input: Confirm if apparent KD of K4 kissing-loop reporter reported for the sequence CCUAUCUCAUACGAUACCAGUCAACGAGUGAUGUUCGAAUAAAUAAAUUUGCCAAAUAAUGACCCUUGGCAGCGUAUGGGAUAGG [Ex Theophylline B K4 15] is 200 nM or above.
Output: True

Input: Confirm if apparent KD of K4 kissing-loop reporter reported for the sequence `CCGCUGUACUGCAUUAAGUGAUGUUUAGUGCAGGAUAUCUGGAAACAGAGAAGGGCAUGUACUCGACUUAGCCACUACAGCGGUU` is 200 nM or above.
Output: True

Input: Confirm if apparent KD of K4 kissing-loop reporter reported for the sequence `GCCGUAGAUUGAAGGAGCGAGGCUACUUAAAGACCGAGUGAUGUUCGGGAACGUGAAACUCCUCAGGUAGGUCGCAAUCUACGGC` is 200 nM or above.
Output: True

Input: Confirm if apparent KD of K4 kissing-loop reporter reported for the sequence AGGAGUGAUGUUCCUACAUAGACGGUCCGACGAGGACCGGUACGGCCGCCACUCGCGUCCCAGUGAUGUUGGGAUUCAACGUACA [Exclusion Tryptophan A Gf 15] is 200 nM or above.
Output: False

Input: Confirm if apparent KD of K4 kissing-loop reporter reported for the sequence UAGUCGCUAGUUAGCGACAACGGGUCAGAUACCAGACUAGCGAUAGUCCCUUGGCAGCUGAAGUUCAGUGAUGUUGAACGGAUUA [Theo A SS t10] is 200 nM or above.
Output: False

Input: Confirm if apparent KD of K4 kissing-loop reporter reported for the sequence CUCGAGUGAUGUUCGAUUAUUUAUACAGAUACCAGUGAAUUUUAACACCCUUGGCAGCUGGUUGUAUCUUUGUAAUUUACACAAG [JR_ExcTheophyA_Sub005] is 200 nM or above.
Output: False

Input: Confirm if apparent KD of K4 kissing-loop reporter reported for the sequence AGACUACCACACUGUCAAUAGACAGUGGACUAGGAUAUGCUGAUAAGCAGAAGGAGUGAUGUUCCUUGGUAGUCAAUAAAAUAAU [FmnAX 13 G28+U67] is 200 nM or above.
Output: True

----------
Please respond with reported apparent KD of MS2 coat protein for every item in the list.
- System: MS2 coat protein
- measurement_notes: apparent KD of MS2 coat protein; designed switch direction (-1 OFF switch, 1 ON switch): -1; higher = weaker reporter binding
- conditions: Eterna round: R98; input ligand: FMN 200 uM
Numeric answer only, unit nM assumed.

Input: Need apparent KD of MS2 coat protein, item AACCUGACAUAAUAAUGUAGAAAUACAUGAGGAUCACCCAUGUAGGAUAUGCAGUGGAAUACACUGCAGAAGGACAUAGUCAGG [Exclusion NG 3/8-B1]
Output: 21.9

Input: Need apparent KD of MS2 coat protein, item UAAUAAUAAUAAUACGUCAAUUACAUGAGGAUCACCCAUGUAUAGGAUAUGCAGUGGAAUACACUGCAGAAGGAUACAAAGACG [Exclusion NG 3/3-B1]
Output: 22.8

Input: Need apparent KD of MS2 coat protein, item UGUAAAAUUGAUCCUGCAAGUACAUGAGGAUCACCCAUGUGCUAGGAUAUCGCUCAGCUAAAGACCGAGAAGGAGCACAAUGUA [Adiraat]
Output: 67.1

Input: Need apparent KD of MS2 coat protein, item GGUUGUUACGCAGGAUAUUGCCAACAGGCAGUGGGAUAUCCGAAAGGAGAAGGUUCGCCAACAGGCGAGAAGGGCGGGUUAACC [pwkr exNG2 2xF7 2FMN.10.7]
Output: 94

Input: Need apparent KD of MS2 coat protein, item GAUACAUAGCAAGGAUAUCCACAUGAGGAUCACCCAUGUGCGUAAUCUGGGCGGUGGAAGAAAGUGGAGAAGGUGUUAGGUUGA [Atia]
Output: 106

Input: Need apparent KD of MS2 coat protein, item GGAUAACAUGUAGGAUAUCCAGCAUUGACCAUCGGAGAAGGACAUGAGGAUCACCCAUGUACCGAUACAAUGGAAUAAGGGAAU [xclu_NG1_cac3]
Output: 17.9

Input: Need apparent KD of MS2 coat protein, item CUGGUGAUGUAAGGAUAUGCUGAGGAUAACUCAGCAGAAGGUACAUGAGGAUCACCCAUGUAAAUGAAAGAUAAUAAACACCAG [Excusion NG 1/16-B2]
Output: 30.9

Input: Need apparent KD of MS2 coat protein, item ACAUGGAAGCGAGGAUAUGCGGCGGAUUUAAACGCAGAAGGCGUUUAUUUAACUCGCAAUAACAUGAGGAUCACCCAUGUAUAA [AK-NGROCr2-ExNG1-5.1]
Output: 59.4

----------
- System: MS2 coat protein
- measurement_notes: apparent KD of MS2 coat protein; higher = weaker reporter binding
- conditions: Eterna round: R107; input ligand: arginine 13.2 mM
Short version: apparent KD of MS2 coat protein at least 30 nM is Condition met, less is Condition not met.

Input: Confirm if apparent KD of MS2 coat protein reported for the sequence ACGACGGCUGCGGCCGCCACUGUACAUGAGGAUCACCCAUGUGUAGUAAUUGGGACCCUGUGUUACAGGACCGGGUAGUUGAUUA [Orquteer] is 30 nM or above.
Output: Condition not met

Input: Confirm if apparent KD of MS2 coat protein reported for the sequence UUAGUAACGACGGCCGCCACUGAAUUUGAACAUGAGGAUCACCCAUGUAGAGAUCCUAGAAUAAACAGGACCGGGUCUGAUAAUG [Exclusion Tryptophane B GF3] is 30 nM or above.
Output: Condition met

Input: Confirm if apparent KD of MS2 coat protein reported for the sequence ACCUGUACGAAAAGUGCAGGACAUGAAUAACGAGGACCGGUACGGCCGCCACUCGGGUAAUAACCUGAGGAUCACCCGGGUCAUG [TrypAS 6 #AlternativeMS2 #Zipper #StaticStem] is 30 nM or above.
Output: Condition met

Input: Confirm if apparent KD of MS2 coat protein reported for the sequence `UGUAUGUGAUCUGAUACCAGCGUUGAUAACCUGAGGAUCACCCUGGUAAAGGCGAAAGCCCGCCCUUGGCAGCAGAUCGCAUACU` is 30 nM or above.
Output: Condition met

Input: Confirm if apparent KD of MS2 coat protein reported for the sequence UUAUUUAUAAUGGAUACCAGUCGUAUGGCCCGGCAUCCUGACAUGAGGAUCACCCAUGUCGACCCUUGGCAGCUGUUAUGGGUUU [XTheo B #21] is 30 nM or above.
Output: Condition not met

Input: Confirm if apparent KD of MS2 coat protein reported for the sequence UAGAAACGUACGGCCGCCACUCGGAAUUGGCUCAGACCAUACGUACAUGAGGAUCACCCAUGUUAGAGGACCGGGUAUAAUCUAA [theeternabot_sameState_MS2_Trp_B_46] is 30 nM or above.
Output: Condition not met

Input: Confirm if apparent KD of MS2 coat protein reported for the sequence UUUCAGUGGACGGCCGCCACUGAAGUCGAUACAAUCAUGUAGAACAUGAGGAUCACCCAUGUAGUCAGGACCGGGUCCAAUGACU [Tryp B SS t3] is 30 nM or above.
Output: Condition not met

Input: Confirm if apparent KD of MS2 coat protein reported for the sequence CCGAACAUGAGGAUCACCCAUGUUAGGGAUACCAGCCCAGACAUGGGCCCUUGGCAGCUCUAUAGCUGACGAAAGUCAGCAUCGG [#14 SameState-TheophyllineA] is 30 nM or above.
Output: Condition met

Input: Confirm if apparent KD of MS2 coat protein reported for the sequence AUUCAUGGAAACAUGACAUACAUUACCGGUCGAGGACCGGUACGGCCGCCACUCGGUUGGUGGCACAUGAGGAUCACCCAUGUUA [SS Tryp A #11] is 30 nM or above.
Output: Condition not met

Input: Confirm if apparent KD of MS2 coat protein reported for the sequence GGUGUAUCCAUCGAUACCAGCCACCACCGAUAGACCACAUGAGGAUCACCCAUGUUGGGUGGCCCUUGGCAGCGGUGGCUGUGCC [Same State - Theophylline B Attempt #3 (HarryS)] is 30 nM or above.
Output: Condition met

Input: Confirm if apparent KD of MS2 coat protein reported for the sequence AGCGACAUGCGUGAUACCAGCUACAUGAGGAUCACCCAUGUCAGUAGGAAACUGCUGUGUAGCCCUUGGCAGCACAGUGCAUGUC [Exclusion - Theophylline B (Freestyle 27)] is 30 nM or above.
Output: Condition met
